- experimental-target: MinElp3 (Methanocaldococcus infernus, UniProt D5VRB9)
- Construct: full length
- Sequence (D5VRB9 whole entry): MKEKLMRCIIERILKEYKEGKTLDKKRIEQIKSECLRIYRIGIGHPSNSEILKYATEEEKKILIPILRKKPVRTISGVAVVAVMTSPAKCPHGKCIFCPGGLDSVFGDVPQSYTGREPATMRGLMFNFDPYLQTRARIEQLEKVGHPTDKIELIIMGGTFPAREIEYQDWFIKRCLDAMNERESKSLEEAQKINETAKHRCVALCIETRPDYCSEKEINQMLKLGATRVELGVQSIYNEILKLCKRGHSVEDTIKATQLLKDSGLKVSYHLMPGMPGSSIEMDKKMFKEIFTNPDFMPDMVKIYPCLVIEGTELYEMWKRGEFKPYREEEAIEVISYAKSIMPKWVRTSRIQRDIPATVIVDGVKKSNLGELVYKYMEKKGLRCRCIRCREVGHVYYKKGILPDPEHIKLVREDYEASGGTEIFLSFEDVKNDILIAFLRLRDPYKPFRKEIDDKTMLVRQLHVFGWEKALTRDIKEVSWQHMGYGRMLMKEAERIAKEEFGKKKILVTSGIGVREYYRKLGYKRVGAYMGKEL
- assay-info: ITC (also tRNA-induced acetyl-CoA hydrolysis)

# smiles-input, Kd
rows = [
    ("CC(=O)SCCNC(=O)CCNC(=O)[C@H](O)C(C)(C)COP(=O)(O)OP(=O)(O)OC[C@H]1O[C@@H](n2cnc3c(N)ncnc32)[C@H](O)[C@@H]1OP(=O)(O)O", "135 µM"),
]
